sequences and their reported self-aminoacylation
# System: biotinyl-Val-oxazolone
# PROCEDURE SUMMARY: self-aminoacylation, catalytic enhancement (BVO) (fold over background); higher = more active; k-Seq, kA / k0A0; sequences stand for … in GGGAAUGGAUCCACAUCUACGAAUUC…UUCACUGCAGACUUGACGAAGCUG
Fewer inactive variants are shown than the library holds.
Lab note: write the figure by itself, no unit.

Here are 2 sequences together with their reported answers.
RECORD SEQUENCE: AUUCACCUAAGUCAGCGGGUG [Fam2.2 aminoacylation ribozyme variant]
SYSTEM NAME: biotinyl-Val-oxazolone
self-aminoacylation: 2.88
//
RECORD SEQUENCE: AAGUUUGCUAAUACUUGCAAG [Fam3.1 aminoacylation ribozyme variant]
SYSTEM NAME: biotinyl-Val-oxazolone
self-aminoacylation: 0.625

Moving on to another sequence below.
Exercise: Given the sequence AUUACCCGGGGCAUCGAGUGA [Fam2.1 aminoacylation ribozyme variant] , what is its reported self-aminoacylation?
Key: 4.54

meta.source: the supplement of paper PMC9233669
